Every entry's value here was drawn from PubChem BioAssay AID2060896.

# System: 941728-121-R-J1-PDC complex spheroid viability;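 also: spheroids exposed to compounds for 7 days before readout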
# assay_details: Anticancer human tumor 941728-121-R-J1-PDC patient-derived lung adenocarcinoma cell line growth inhibition [RAS]
# experimental_parameters: curve of first compound; second compound 0.00949 µM
pIC50: −log10 of the molar value.
property: pIC50

1) CCN1CCN(Cc2ccc(Nc3ncc(F)c(-c4cc(F)c5nc(C)n(C(C)C)c5c4)n3)nc2)CC1 + CCn1c(-c2cccnc2C(C)OC)c2c3cc(ccc31)N1CCOC(CC(NC(=O)C(C(C)C)N(C)C(=O)C3(F)CCN(C(=O)C#CC(C)(C)N(C)C)CC3)C(=O)N3CCCC(N3)C(=O)OCC(C)(C)C2)C1 : > 8.50
2) NC1c2ccccc2OC12CCN(c1cnc3c(N4CCCc5ncccc54)n[nH]c3n1)CC2 (centres undefined) + CCn1c(-c2cccnc2C(C)OC)c2c3cc(ccc31)N1CCOC(CC(NC(=O)C(C(C)C)N(C)C(=O)C3(F)CCN(C(=O)C#CC(C)(C)N(C)C)CC3)C(=O)N3CCCC(N3)C(=O)OCC(C)(C)C2)C1 : > 7.50

**Query** Would you mind telling me what pIC50 value was observed for CC1(C)CCC(Nc2ncc(C(F)(F)F)c(-c3c[nH]c4c(P(C)(C)=O)c(C#N)ccc34)n2)CN1 (centres undefined) + CCn1c(-c2cc(N3CCN(C)CC3)cnc2C(C)OC)c2c3cc(ccc31)-c1csc(n1)CC(NC(=O)C1CC1C)C(=O)N1CCCC(N1)C(=O)OCC(C)(C)C2 ?
**Result** > 9.02

**Query** Would you mind telling me what pIC50 value was observed for C[C@@H](NC(=O)c1ncnc(N)c1Cl)c1ncc(C(=O)Nc2cc(C(F)(F)F)c(Cl)cn2)s1 + CCn1c(-c2cccnc2C(C)OC)c2c3cc(ccc31)N1CCOC(CC(NC(=O)C(C(C)C)N(C)C(=O)C3(F)CCN(C(=O)C#CC(C)(C)N(C)C)CC3)C(=O)N3CCCC(N3)C(=O)OCC(C)(C)C2)C1 ?
**Result** > 7.50
